Consider the following binders and their measured koff readings.
test.system: T1, human serum albumin (human, UniProt P02768 25-609)
T1 construct: Bought protein; also called HSA
protocol.summary: SPR, pH 7.4, immobilized HSA density ~3000 RU

>  <binder>
TPP-66097 (other, also called ABD-35GS-ALB23002-A; ABD-35GS-Alb223) LKEAKEKAIEELKKAGITSDYYFDLINKAKTVEGVNALKDEILKAGGGGSGGGGSGGGGSGGGGSGGGGSGGGGSGGGGSEVQLVESGGGVVQPGGSLRLSCAASGFTFRSFGMSWVRQAPGKGPEWVSSISGSGSDTLYADSVKGRFTISRDNSKNTLYLQMNSLRPEDTALYYCTIGGSLSRSSQGTLVTVSSA

>  <koff / s⁻¹>
8.4e-05

$$$$
>  <binder>
TPP-66093 (VHH, also called ALBX00002-35GS-ALB23002-A; ALBX00002-35GS-Alb223) EVQLVESGGGVVQPGGSLRLSCAASGLTFSSYAMGWFRQAPGKERERVVSISRGGGYTYYADSVKGRFTISRDNSKNTVYLQMNSLRPEDTALYYCAAARYWATGSEYEFDYWGQGTLVTVSSGGGGSGGGGSGGGGSGGGGSGGGGSGGGGSGGGGSEVQLVESGGGVVQPGGSLRLSCAASGFTFRSFGMSWVRQAPGKGPEWVSSISGSGSDTLYADSVKGRFTISRDNSKNTLYLQMNSLRPEDTALYYCTIGGSLSRSSQGTLVTVSSA

>  <koff / s⁻¹>
6.6e-05

$$$$
>  <binder>
TPP-66095 (other, also called DARPIN-35GS-ALB23002-A; DARPIN-35GS-Alb223) DLGKKLLEAARAGQDDEVRELLKAGADVNAKDYFSHTPLHLAARNGHLKIVEVLLKAGADVNAKDFAGKTPLHLAANEGHLEIVEVLLKAGADVNAQDIFGKTPADIAADAGHEDIAEVLQKAAGGGGSGGGGSGGGGSGGGGSGGGGSGGGGSGGGGSEVQLVESGGGVVQPGGSLRLSCAASGFTFRSFGMSWVRQAPGKGPEWVSSISGSGSDTLYADSVKGRFTISRDNSKNTLYLQMNSLRPEDTALYYCTIGGSLSRSSQGTLVTVSSA

>  <koff / s⁻¹>
0.00016

$$$$
>  <binder>
TPP-66094 (VHH, also called T023500029-35GS-ALB23002-A; T023500029-35GS-Alb223) EVQLVESGGGVVQPGDSLRLSCAASGGTFSTYVMGWFRQAPGKEREFVSAISQNSIHTYYANSVKGRFTISRDNSKNTVYLQLNSLRPEDTALYYCAASRFTSWYTADYEYDYWGQGTLVTVSSGGGGSGGGGSGGGGSGGGGSGGGGSGGGGSGGGGSEVQLVESGGGVVQPGGSLRLSCAASGFTFRSFGMSWVRQAPGKGPEWVSSISGSGSDTLYADSVKGRFTISRDNSKNTLYLQMNSLRPEDTALYYCTIGGSLSRSSQGTLVTVSSA

>  <koff / s⁻¹>
7.6e-05

$$$$

// data source = patent US20250129145A1
